# Tested on: Plasmodium berghei
# experimentalDetails: Luciferase/luciferin-expressing antifolate-resistant parasites were used to infect a culture of HepG2 cells that were pre-incubated with compounds. Infected hepatocytes emit light due to the luciferase reaction. Assay results are presented as the percent inhibition of light emission compared to control. […]
# Assay type: functional
# experimentalConditions: sporozoite, PBLUC_HILL_SLOPE 0.552, PBLUC_R_SQUARED 0.432, read-out: LUCIFERASE INFECTION ASSAY - IC50
measuredMetric: pIC50
Conceptually, pIC50 converts a concentration in mol/L into minus its log10.

Could you share which pIC50 value was measured for `Cc1ccc(NC(=O)c2[nH]nc3c2CCCC3)cc1Cl` ?
7.13
